# procedure_text: In vitro cytotoxicity tested as inhibitory concentration against carcinoma KB cell line
# Format: functional, cell-based
# run_parameters: Homo sapiens
pIC50: −log10 of the molar value.
result_type: pIC50

INSERT INTO assay_data (compound, result_type, value_measured) VALUES
  ('CO[C@H]1CCOP(=O)(NCCCl)N1CCCl (stereo partly drawn)', 'pIC50', 4.70),
  ('CO[C@@H]1CCOP(=O)(NCCCl)N1CCCl (stereo partly drawn)', 'pIC50', 4.66),
  ('O=P1(NCCCl)OCCC(O)N1CCCl (stereo not drawn) [ALDOIFOSFAMIDE]', 'pIC50', 5.00);
